# Target or test system: 5-HT2C receptor (Homo sapiens, UniProt P28335)
# Construct: host or cells: U2OS
# Sequence (P28335 33-458): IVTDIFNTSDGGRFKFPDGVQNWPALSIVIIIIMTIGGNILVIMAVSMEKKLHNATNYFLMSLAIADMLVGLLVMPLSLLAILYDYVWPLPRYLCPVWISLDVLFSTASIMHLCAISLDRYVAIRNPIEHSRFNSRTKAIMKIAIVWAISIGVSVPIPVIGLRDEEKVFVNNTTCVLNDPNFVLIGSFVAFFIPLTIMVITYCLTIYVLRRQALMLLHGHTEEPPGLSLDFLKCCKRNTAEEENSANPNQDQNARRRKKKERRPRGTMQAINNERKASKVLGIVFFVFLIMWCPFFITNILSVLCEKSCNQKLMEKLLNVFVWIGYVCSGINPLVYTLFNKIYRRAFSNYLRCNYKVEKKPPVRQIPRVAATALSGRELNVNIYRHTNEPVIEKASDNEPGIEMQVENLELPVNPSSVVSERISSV
# Sequence (P32121 whole entry partner): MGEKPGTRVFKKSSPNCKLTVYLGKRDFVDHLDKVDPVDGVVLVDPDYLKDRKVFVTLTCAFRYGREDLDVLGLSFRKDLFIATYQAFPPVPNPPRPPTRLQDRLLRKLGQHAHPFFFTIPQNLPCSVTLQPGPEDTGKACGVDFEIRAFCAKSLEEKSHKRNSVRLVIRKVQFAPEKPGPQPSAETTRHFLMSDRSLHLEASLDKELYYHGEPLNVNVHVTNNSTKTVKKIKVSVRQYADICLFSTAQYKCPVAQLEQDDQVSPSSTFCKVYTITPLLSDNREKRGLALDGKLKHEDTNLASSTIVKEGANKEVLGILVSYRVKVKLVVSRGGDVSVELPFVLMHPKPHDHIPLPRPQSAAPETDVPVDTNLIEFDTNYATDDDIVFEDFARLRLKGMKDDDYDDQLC
# Assay comment: Human 5-HT2C functional assay (beta-arrestin2 recruitment, U2OS_HTR2C_β-Arrestin cells)
# Format: cell-based
# Particulars: Potency (EC50 5-HT2C) in functional assay; agonism; read-out: EC50 5-HT2C
Attribute measured: EC50

COC[C@@H]1C[C@@H]2CNCCN2c2cccc(C3CC3)c2O1.Cl [Example 48, hydrochloride] | < 0.02 µM
COC[C@@H]1C[C@@H]2CNCCN2c2cc(F)cc(C#N)c2O1.Cl [Example 13, hydrochloride] | 0.02 to 0.2 µM
Cl.Fc1cc(Cl)c2c(c1)N1CCNC[C@H]1C[C@@H](COC(F)F)O2 [Example 24, hydrochloride] | 0.02 to 0.2 µM

Ask: Entry COC[C@@H]1C[C@@H]2CNCCN2c2cccc(C#N)c2O1.Cl [Example 12, hydrochloride] needs its EC50 filled in; supply it.
Result: 0.02 to 0.2 µM

Ask: Specify measured EC50 for COC[C@H]1C[C@@H]2CNCCN2c2cccc(Cl)c2O1.O=C(O)C(F)(F)F [Example 2] .
Result: 0.02 to 0.2 µM

Ask: Using known records, supply EC50 for COC[C@@H]1C[C@@H]2CNCCN2c2c(F)c(F)cc(F)c2O1.O=C(O)/C=C/C(=O)O [Example 18]
Result: 0.02 to 0.2 µM

Ask: Note down EC50 recorded for C#Cc1cc(F)c2c(c1)N1CCNC[C@H]1C[C@@H](COC)O2.O=C(O)C(O)C(O)C(=O)O [Example 36]
Result: 0.2 to 1 µM

Ask: Return EC50 (reported value) for this molecule: COC[C@H]1C[C@@H]2CNCCN2c2cc(F)cc(C(F)F)c2O1.Cl [Example 32, hydrochloride]
Result: 0.2 to 1 µM

* * *

# Target or test system: human 5-HT2B receptor (Homo sapiens)
# Construct: expressed in transfected cells; host or cells: CHO-FlpIn
# Sequence (P41595 whole entry): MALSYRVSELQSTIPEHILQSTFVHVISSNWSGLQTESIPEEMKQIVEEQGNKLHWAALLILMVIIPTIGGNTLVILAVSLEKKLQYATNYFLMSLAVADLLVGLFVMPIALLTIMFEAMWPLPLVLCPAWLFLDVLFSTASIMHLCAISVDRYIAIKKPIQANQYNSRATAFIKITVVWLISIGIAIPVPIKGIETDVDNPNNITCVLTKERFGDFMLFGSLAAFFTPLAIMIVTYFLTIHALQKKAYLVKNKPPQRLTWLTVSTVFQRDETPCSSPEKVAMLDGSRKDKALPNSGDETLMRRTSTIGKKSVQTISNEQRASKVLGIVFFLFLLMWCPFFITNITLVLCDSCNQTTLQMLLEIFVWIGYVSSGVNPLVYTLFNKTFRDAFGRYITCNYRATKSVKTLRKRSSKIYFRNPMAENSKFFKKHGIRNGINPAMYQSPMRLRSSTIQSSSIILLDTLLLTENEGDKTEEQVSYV
# Assay comment: Human 5-HT2B functional assay (calcium mobilisation in CHO-FlpIn cells, FLIPR)
# Format: cell-based
# Particulars: based on agonism: EC50 5-HT2B/EC50 5-HT2C
Attribute measured: Selectivity over 5-HT2B

Guide cases for Selectivity over 5-HT2B, answers given:
COC[C@@H]1C[C@@H]2CNCCN2c2c(F)c(F)cc(F)c2O1.O=C(O)/C=C/C(=O)O | +++ (>100)
C#Cc1cc(F)c(F)c2c1O[C@H](COC)C[C@@H]1CNCCN21.Cl | + (from 10 to 30)
Cc1ccc2c(c1F)O[C@H](CO)C[C@@H]1CNCCN21 | ++ (from >30 to 100)
COC[C@H]1C[C@@H]2CNCCN2c2c(F)c(F)cc(Cl)c2O1.Cl | + (from 10 to 30)
COC[C@@H]1C[C@@H]2CNCCN2c2cccc(C(F)F)c2O1.Cl | ++ (from >30 to 100)

Switching to the query record.
Ask: Indicate its recorded Selectivity over 5-HT2B; the compound in question is COC[C@@H]1C[C@@H]2CNCCN2c2cc(F)ccc2O1.Cl
Result: +++ (>100)

* * *

# Target or test system: 5-HT2C receptor (Homo sapiens, UniProt P28335)
# Construct: host or cells: U2OS
# Assay comment: Human 5-HT2C functional assay (beta-arrestin2 recruitment, U2OS_HTR2C_β-Arrestin cells)
# Assay type: cell-based
# Particulars: Potency (EC50 5-HT2C) in functional assay; agonism; read-out: EC50 5-HT2C
Attribute measured: EC50

Here's what some known entries look like.
COC[C@@H]1C[C@@H]2CNCCN2c2ccc(F)cc2O1.Cl [Example 51, hydrochloride] | 200 to 1000 nM
Cl.[2H]C([2H])([2H])OC[C@@H]1C[C@@H]2CNCCN2c2cc(F)cc(Cl)c2O1 | < 20 nM
COC[C@@H]1C[C@@H]2CNCCN2c2cc(OC)cc(Cl)c2O1.Cl [Example 44, hydrochloride] | 20 to 200 nM

Now consider the entry below.
Ask: Give recorded EC50. COC[C@@H]1C[C@@H]2CNCCN2c2cc(F)cc(F)c2O1.Cl [Example 11, hydrochloride]
Result: 20 to 200 nM

* * *

# Assay comment: Metabolic stability in human liver microsomes, unbound intrinsic clearance
# Assay type: in vitro ADME
# Particulars: liver microsomes, pH 7.4; unbound intrinsic clearance (human); Clint unbound = Cl int/fu mic; read-out: Cl int, mic unb. (h)
Attribute measured: CLint scaled at 0.5 μM

Ask: Note CLint scaled at 0.5 μM for the molecule shown: COC[C@@H]1C[C@@H]2CNCCN2c2cccc(Cl)c2O1.Cl [Example 1, hydrochloride]
Result: < 83.3 mL/min/kg

Ask: Using the record for COC[C@@H]1C[C@@H]2CNCCN2c2cc(F)cc(F)c2O1.Cl [Example 11, hydrochloride] , state its measured CLint scaled at 0.5 μM.
Result: < 83.3 mL/min/kg

Ask: Return reported CLint scaled at 0.5 μM. Input molecule: COC[C@@H]1C[C@@H]2CNCCN2c2cc(C(F)(F)F)cc(Cl)c2O1
Result: 83.3 to 833 mL/min/kg

Ask: Provide CLint scaled at 0.5 μM value for the following molecule: COC[C@@H]1C[C@@H]2CNCCN2c2c(F)c(F)cc(Cl)c2O1.Cl [Example 16, hydrochloride]
Result: < 83.3 mL/min/kg

Ask: Determine its reported CLint scaled at 0.5 μM: COC[C@@H]1C[C@@H]2CNCCN2c2c(F)ccc(Cl)c2O1.O=C(O)/C=C/C(=O)O
Result: < 83.3 mL/min/kg

Ask: Identify measured CLint scaled at 0.5 μM associated with C#Cc1cc(F)c2c(c1)N1CCNC[C@H]1C[C@@H](COC)O2.O=C(O)C(O)C(O)C(=O)O
Result: 83.3 to 833 mL/min/kg

Ask: Kindly indicate its recorded CLint scaled at 0.5 μM. Item: COC[C@@H]1C[C@@H]2CNCCN2c2c(F)cccc2O1.Cl [Example 54, hydrochloride]
Result: < 83.3 mL/min/kg

Ask: Kindly indicate its recorded CLint scaled at 0.5 μM. Item: Cl.Fc1cc(Cl)c2c(c1)N1CCNC[C@H]1C[C@@H](COC(F)F)O2 [Example 24, hydrochloride]
Result: 83.3 to 833 mL/min/kg

* * *

# Target or test system: 5-HT2C receptor (Homo sapiens, UniProt P28335)
# Construct: host or cells: U2OS
# Assay comment: Human 5-HT2C functional assay (beta-arrestin2 recruitment, U2OS_HTR2C_β-Arrestin cells)
# Format: cell-based
# Particulars: relative efficacy vs maximal effect induced by 5-HT (defined as 100%)
The following compounds are shown together with reported Emax values.

COC[C@@H]1C[C@@H]2CNCCN2c2cc(OC)cc(Cl)c2O1.Cl [Example 44, hydrochloride] | > 70%

Ask: Tell us which Emax value is on record for C#Cc1cc(F)cc2c1O[C@H](COC)C[C@@H]1CNCCN21.Cl [Example 34, hydrochloride]
Result: > 70%

Ask: Give Emax for the following compound: Cl.Fc1cc(Cl)c2c(c1)N1CCNC[C@H]1C[C@@H](COC(F)F)O2 [Example 24, hydrochloride]
Result: 50 to 70%

Ask: Tell us which Emax value is on record for COC[C@@H]1C[C@@H]2CNCCN2c2cc(F)cc(Cl)c2O1.Cl [Example 7, hydrochloride]
Result: > 70%

Ask: # return recorded Emax for entry COC[C@@H]1C[C@@H]2CNCCN2c2cccc(F)c2O1.Cl [Example 50, hydrochloride]
Result: > 70%

Ask: Report Emax, nothing else, for this compound: Cl.OC[C@@H]1C[C@@H]2CNCCN2c2c(F)c(F)cc(Cl)c2O1 [Example 20, hydrochloride]
Result: > 70%

Ask: Recall and state the measured Emax for COC[C@@H]1C[C@@H]2CNCCN2c2c(F)c(F)cc(C(F)(F)F)c2O1.Cl [Example 56, hydrochloride] .
Result: > 70%

Ask: State its Emax for this compound: Cc1ccc2c(c1F)O[C@H](CO)C[C@@H]1CNCCN21
Result: 50 to 70%

* * *

# Target or test system: human 5-HT2A receptor (Homo sapiens)
# Construct: expressed in transfected cells; host or cells: CHO-K1
# Sequence (P28223 whole entry): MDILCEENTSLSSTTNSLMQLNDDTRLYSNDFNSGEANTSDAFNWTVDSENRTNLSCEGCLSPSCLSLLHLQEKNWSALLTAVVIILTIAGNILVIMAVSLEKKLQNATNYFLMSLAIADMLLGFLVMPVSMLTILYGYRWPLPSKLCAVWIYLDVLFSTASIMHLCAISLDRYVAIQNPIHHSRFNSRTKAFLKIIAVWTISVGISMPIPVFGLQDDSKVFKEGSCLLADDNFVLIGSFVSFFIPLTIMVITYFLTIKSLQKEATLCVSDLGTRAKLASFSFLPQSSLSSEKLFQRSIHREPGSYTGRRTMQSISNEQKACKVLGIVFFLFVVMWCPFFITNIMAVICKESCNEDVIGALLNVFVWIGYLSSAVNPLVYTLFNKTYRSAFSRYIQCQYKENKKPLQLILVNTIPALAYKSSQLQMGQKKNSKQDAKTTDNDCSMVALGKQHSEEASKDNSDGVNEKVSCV
# Assay comment: Human 5-HT2A functional assay (calcium mobilisation in CHO-K1 cells, FLIPR)
# Type: cell-based
# Particulars: based on agonism: EC50 5-HT2A/EC50 5-HT2C
Attribute measured: Selectivity over 5-HT2A

Please review the entries below; each comes with its answer.
COC[C@@H]1C[C@@H]2CNCCN2c2cc(F)cc(C(F)(F)F)c2O1.Cl | +++ (>100)
Cl.OC[C@@H]1C[C@@H]2CNCCN2c2cccc(Cl)c2O1 | +++ (>100)
COC[C@@H]1C[C@@H]2CNCCN2c2cc(C)cc(F)c2O1 | + (from 10 to 30)
COC[C@@H]1C[C@@H]2CNCCN2c2nccc(C(F)F)c2O1.O=C(O)C(F)(F)F | ++ (from >30 to 100)
COC[C@H]1C[C@@H]2CNCCN2c2cccc(Cl)c2O1.O=C(O)C(F)(F)F | +++ (>100)

Here's the next entry for you.
Ask: Return value of Selectivity over 5-HT2A for input COC[C@@H]1C[C@@H]2CNCCN2c2cc(F)ccc2O1.Cl , no commentary.
Result: +++ (>100)
